FYI, the data here is from PubChem BioAssay.

Target: Albumin (Bos taurus)
Test: bovine serum albumin binders on microarray, profiling panel, artefact control for SMM control protein annotation, biochemical, small-molecule microarray, Alexa647 label, 635/667 nm fluorescence (AID 1118);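 also: score merges 667 nm emission intensity and signal-to-noise per printed compound spot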
Settings: BSA-A647 binding, fluorescence 635 nm, higher = more signal
Documented composite z-score across a set of compounds
value-kind: composite z-score

molecule=COc1ccc([Si](C)(C)[C@@H]2[C@@H](CC(=O)N(CCO)Cc3ccccc3)O[C@]3(C(=O)N(c4ccccc4)c4ccccc43)[C@H]2C)cc1 value_kind="composite z-score" data_value=0.593
molecule=COC(=O)[C@H](Cc1ccccc1)N1CC(/C=C/C2CC2)=C[C@H]1[C@H](O)Cc1ccccc1 value_kind="composite z-score" data_value=0.59
molecule=C=C(/C(=C/C[C@H](OC(=O)c1ccncc1)c1ccc(CO)o1)c1cc(C(=O)OC)ccc1OC)C(C)C value_kind="composite z-score" data_value=0.0703

====

Test: binders of probe aHhip on microarray, primary screen, stem cell growth factor project, biochemical, small-molecule microarray, fluorescence 635/667 (AID 1087);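 also: score merges spot fluorescence at 667nm with spot signal to noise ratio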
Settings: higher = more signal
Label class 1 when composite z-score is at or above 0.008; anything below gets class 0.

compound="CC1CC/C=C\\[C@H]2OC34C=CCN(c5ccc(Cl)cc5)C(=O)[C@H]3N(CCCCCO)C(=O)[C@]4(C)C2C(=O)O1 (stereo not given in full)" label_class="class 0"
compound=C[C@]1(C(=O)NC2CC2)c2ccccc2C(=O)N(Cc2ccccc2)[C@H]1c1ccc(CO)cc1 label_class="class 0"
compound="CCOC(=O)C1CCCCN1 (stereo not given)" label_class="class 1"
compound=O=C1C[C@@](C(=O)NCCN2CCOCC2)(c2ccc([N+](=O)[O-])cc2)[C@@H](c2ccc(CO)cc2I)N1C1CCCCC1 label_class="class 0"
compound="C=CCC(OC(C)=O)[C@@H]1[C@@H](N(Cc2cc3ccccc3o2)C(=O)c2ccc(C)cc2)c2cc(OCCCO)ccc2N1C(=O)Cc1ccc(OC)cc1 (stereo not given in full)" label_class="class 0"
compound="Cc1ccccc1C(O)C1C=CC2C(=O)N(C)C(=O)C2N1N(c1ccccc1)c1ccccc1 (stereo not given)" label_class="class 0"
compound=O=C(NCC(F)(F)F)[C@@H]1c2ccccc2C(=O)N(Cc2ccccc2C(F)(F)F)[C@H]1c1ccc(CO)cc1 label_class="class 1"
compound="Cn1cccc1C(O)C1C=CC2C(=O)NC(=O)C2N1Nc1ccc(Cl)cc1Cl (stereo not given)" label_class="class 1"
compound=COCCCNC(=O)[C@]1(CCS(=O)(=O)c2ccccc2)N=C(c2ccc(OCCCO)cc2)O[C@@H]1c1ccccc1N=[N+]=[N-] label_class="class 0"
compound="Cc1cc(C)c(C(O)C2C=CC3C(=O)N(c4ccccc4)C(=O)C3N2Nc2ccc(C(C)C)cc2)c(C)c1 (stereo not given)" label_class="class 1"

====

Experiment: RPMI8226 myeloma cell viability, profiling panel, resazurin fluorescence, basal, 24 h, PK04 Diversity Set (AID 1180);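 also: RPMI8826 multiple myeloma cell line at 5000 cells per well; test concentration not given here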
Conditions: higher = more signal
value-kind: z-score

compound="COC1OC[C@]2(C)[C@H]3C4=C(CN2C(=O)OC(C)(C)C)[C@H](C)C(CO)C(CO)C4CC[C@@H]13 (some centres not stated)" data_value=-0.975
compound=COC(=O)c1c2oc(c1C(=O)OC)C(=O)N(Cc1ccccc1)Cc1cn(nn1)C[C@H](Cc1ccccc1)NC(=O)N[C@H](CO)CC2 data_value=1.16
compound=O=C1O[C@@H](c2ccccc2)[C@@H](c2ccccc2)N2[C@@H](c3ccc(O)cc3)[C@]3(C(=O)Nc4ccc(C#CC5=CCCCC5)cc43)[C@@H](C(=O)NC[C@H](O)c3ccccc3)[C@H]12 data_value=-6.69
compound="CC(CO)N1C(=O)[C@@H]2[C@H]3C(=O)OCC=C[C@H]3OC23C=CCN(C(C)(C)C)C(=O)[C@@H]13 (some centres not stated)" data_value=-0.794
compound=COCCCNC(=O)[C@]1(CCS(=O)(=O)c2ccccc2)N=C(c2ccc(OCCCO)cc2)O[C@@H]1c1ccccc1CN=[N+]=[N-] data_value=-0.601
compound=O=C(N1CCCCC1)[C@@]1(CCS(=O)(=O)c2ccccc2)COC(c2ccc(OCCCO)cc2)=N1 data_value=-0.675
compound="CC(C)(C)OC(=O)CC[C@]1(C(=O)NCC(O)CO)N=C(c2ccc(OCCCO)cc2)O[C@H]1c1ccccc1 (some centres not stated)" data_value=0.949
compound=O=C(NCC(F)(F)F)[C@@H]1c2ccccc2C(=O)N(Cc2ccc(OC(F)(F)F)cc2)[C@H]1c1ccc(CO)cc1 data_value=1.04
compound="OCCCC1=CC(c2ccc(CN3CCCC3)cc2)N(Cc2sc3ccccc3c2Cl)CC1 (configuration not stated)" data_value=0.234
compound="O=C1OCC=C[C@H]2OC34C=CCN(Cn5nnc6ccccc65)C(=O)[C@H]3N(CCCO)C(=O)[C@@H]4[C@@H]12 (some centres not stated)" data_value=-0.509
compound="CCCCCCCCCCC(O)C1C=CC2C(=O)N(C)C(=O)C2N1NC(=O)OC(C)(C)C (configuration not stated)" data_value=-5.64
compound=COC(=O)[C@@]1(Cc2ccc(F)cc2)[C@H]2c3cc(C(=O)N(C)C)n(Cc4cc(F)cc5c4OCOC5)c3C[C@H]2CN1C(=O)c1ccccc1 data_value=-2.74
